List of IC50 values.
Molecular target: CYP11A1 (Homo sapiens)
Construct: host or cells: NCI-H295R
Sequence (P05108 40-521): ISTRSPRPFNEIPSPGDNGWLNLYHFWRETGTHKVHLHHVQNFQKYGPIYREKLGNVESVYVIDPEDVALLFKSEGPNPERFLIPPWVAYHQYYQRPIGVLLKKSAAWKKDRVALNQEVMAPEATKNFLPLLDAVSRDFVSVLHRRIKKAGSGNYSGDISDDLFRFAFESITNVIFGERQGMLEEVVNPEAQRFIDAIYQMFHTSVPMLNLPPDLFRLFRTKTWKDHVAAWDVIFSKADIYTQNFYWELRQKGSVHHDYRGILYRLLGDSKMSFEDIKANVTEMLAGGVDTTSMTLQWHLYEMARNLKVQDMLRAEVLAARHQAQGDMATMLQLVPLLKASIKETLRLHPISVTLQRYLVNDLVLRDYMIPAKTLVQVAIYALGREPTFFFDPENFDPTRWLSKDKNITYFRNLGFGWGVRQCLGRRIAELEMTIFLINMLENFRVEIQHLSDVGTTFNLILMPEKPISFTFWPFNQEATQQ
Experiment: NCI-H295R cellular pregnenolone biosynthesis inhibition assay (ELISA method)
Assay type: cell-based
Details: NCI-H295R cells, 3 days incubation, pregnenolone in cell supernatant by ELISA; read-out: IC50

>>> df
                                   compound            study_target  readout_name  experimental_value
0  Cn1c(CN2Cc3cccnc3C2)c(F)cc(CCC2CCN(S(C)(=O)=O)CC2)c1=O  CYP11A1 (Homo sapiens)          IC50       100 to 300 nM

query: Using the record for `Cn1c(CN2Cc3cccc(F)c3C2)c(F)cc(CCC2CCN(S(C)(=O)=O)CC2)c1=O` , report its IC50.
result: > 300 nM

query: Can you look up the measured IC50 of `CS(=O)(=O)N1CCC2(CCN(c3ccc(CN4Cc5ccccc5C4)cc3F)CC2)C1` for me?
result: > 300 nM

query: Look at this compound and give its reported IC50. `Cn1c(CN2Cc3ccccc3C2)c(F)cc(C=CC2CCN(S(=O)(=O)C3CC3)CC2)c1=O`
result: < 100 nM

query: Entry `CCS(=O)(=O)N1CCC(CCc2ccc(CN3Cc4ccccc4C3)cc2OC)CC1` : reported IC50 = ?
result: < 100 nM

query: What value of IC50 has been recorded for this entry: `COc1cc(CN2Cc3ccccc3C2)ccc1OCC1CCN(S(C)(=O)=O)CC1`
result: 100 to 300 nM

query: Requested field: IC50. Item: [2H]C(c1c(F)cc(CCC2CCN(S(C)(=O)=O)CC2)c(=O)n1C)N1Cc2ccccc2C1 (centres unmarked)
result: < 100 nM

query: State the recorded IC50 for this entry: `CS(=O)(=O)N1CCC(COc2ccc(CN3Cc4ccccc4C3)cc2-c2ccco2)CC1`
result: > 300 nM

* * *

target: CYP11A1 (Homo sapiens, UniProt P05108); construct: host or cells: NCI-H295R; assay: NCI-H295R cellular pregnenolone biosynthesis inhibition assay (ELISA method); assay type: cell-based; conditions: NCI-H295R cells, 3 days incubation, pregnenolone in cell supernatant by ELISA; read-out: IC50
Each item that follows carries a reported IC50.

                                 smiles_str  experimental_value
0  C=CS(=O)(=O)N1CCC(CCc2ccc(CN3Cc4ccccc4C3)cc2OC)CC1       100 to 300 nM
1  COc1cc(CN2Cc3ccccc3C2)ccc1/C=C/C1CCN(S(C)(=O)=O)CC1            < 100 nM
2  Cn1c(CN2Cc3ccccc3C2)c(F)cc(CCC2CCN(S(C)(=O)=O)CC2)c1=O            < 100 nM
3  CS(=O)(=O)N1CCC(CCc2cc(F)c(CN3Cc4ccccc4C3)[nH]c2=O)CC1       100 to 300 nM
4  COc1nc(CN2Cc3ccccc3C2)ccc1OCC1CCN(S(C)(=O)=O)CC1       100 to 300 nM
5  CS(=O)(=O)N1CCC(COc2ccc(CN3Cc4ccccc4C3)cc2OC(F)(F)F)CC1       100 to 300 nM
6  CSc1cc(CN2Cc3ccccc3C2)c(F)cc1OCC1CCN(S(C)(=O)=O)CC1            < 100 nM
7  OCCN1CCC(COc2cc(F)c(CN3Cc4ccccc4C3)cc2Br)CC1            > 300 nM

query: Item `COc1cc(CN2Cc3ccccc3C2)ccc1CCC1CCN(C(=O)C(F)(F)F)CC1` has what recorded IC50?
result: 100 to 300 nM

query: Name the reported IC50 value associated with the compound `CC(=O)N1CCN(c2cccc(Oc3ccc(CN4Cc5ccccc5C4)cc3F)c2)CC1`
result: > 300 nM
